# experimentalTarget: Alpha-synuclein (Homo sapiens)
# protocolDetails: Inhibition of alpha-Synuclein (unknown origin) aggregation assessed as aggregation by measuring ThT fluorescence at 500 uM incubated for 5 days by ThT fluorescence assay (reference value: 100%)
# Parameters: scale not given: the % may be the effect or the level left
# testConditions: time 5.0 day
valueType: Activity (%)

Some compounds with recorded Activity:
>>> measuredvalue("Oc1cc2ccc3cc(O)c(O)cc3c2cc1O")
25.9
>>> measuredvalue("Cc1c(C)c2cc(O)c(O)cc2c2cc(O)c(O)cc12")
19.3
>>> measuredvalue("CC1(C)c2cc(O)c(O)cc2-c2c(ccc(O)c2O)C1(C)C")
15.5
>>> measuredvalue("CC(C)(c1ccc(O)c(O)c1)C(C)(C)c1ccc(O)c(O)c1")
9.2
>>> measuredvalue("C[C@@H]1Cc2cc(O)c(O)cc2-c2cc(O)c(O)cc2C[C@@H]1C")
13.6
>>> measuredvalue("Oc1ccc(CCc2ccc(O)c(O)c2)cc1O")
8.1

a. CC1c2cc(O)c(O)cc2-c2c(ccc(O)c2O)C1C (stereo unspecified)
b. CC(c1ccc(O)c(O)c1)C(C)c1ccc(O)c(O)c1 (mixture of isomers)
Could you tell me which of a and b has the lower Activity reading? Give the label of your selection.
b
(b: 6.1%, a: 45.6%)

P. CC1(C)c2cc(O)c(O)cc2-c2cc(O)c(O)cc2C1(C)C
Q. Oc1cc2c(cc1O)-c1c(ccc(O)c1O)CC2
Could you tell me which of P and Q has the lower Activity reading? Give the label of your selection.
Q
